target: pepsin (Sus scrofa)
test_description: in vitro
protocol_conditions: simulated gastric fluid, pH 1.2
Starred links: 1 amine or outer side, 2 acyl side, 3 side chain; linkers in the order of their positions; H or OH if unused. Non-standard residues stand in square brackets, D forms with d. Residues, ends and D or L forms follow the SMILES beside them. X1 = CC(C)C[C@H](NC(=S)[C@H](Cc1ccc(O)cc1)N[*:1])C(=O)[*:2]; X3 = CC(C)C[C@H](N[*:1])C(=S)N[C@H](CC(C)C)C(=O)[*:2]; X4 = CC(C)C[C@H](N[*:1])C(=S)N1CCC[C@@H]1C(=O)[*:2]; NMeY = CN[C@@H](Cc1ccc(O)cc1)C(=O)O; NMeL = CN[C@@H](CC(C)C)C(=O)O
Consider the following compounds; for each one, report its remaining at 0.5 h.
Answers are plain numbers, in %.

As a guide, the following entries are already answered.
>  <compound>
CC(C)C[C@@H]1NC(=O)[C@H](Cc2ccc(O)cc2)NC(=O)[C@H]2CCCN2C(=O)[C@H](CC(C)C)NC(=O)[C@H](CC(C)C)N(C)C(=O)[C@@H](CC(C)C)NC1=O [10h] (cyclo(L[dL][NMeL]L[dP]Y))

>  <value_unit>
%

>  <observed_result>
67

$$$$
>  <compound>
CC(C)C[C@@H]1NC(=O)[C@@H](CC(C)C)NC(=S)[C@H](CC(C)C)NC(=O)[C@H](Cc2ccc(O)cc2)NC(=O)[C@H]2CCCN2C(=O)[C@H](CC(C)C)NC1=O [10f] (cyclo(LL[dP]Y[X3]))

>  <value_unit>
%

>  <observed_result>
61

$$$$
>  <compound>
CC(C)C[C@@H]1NC(=O)[C@@H](CC(C)C)NC(=O)[C@H](CC(C)C)NC(=S)[C@H](Cc2ccc(O)cc2)NC(=O)[C@H]2CCCN2C(=O)[C@H](CC(C)C)NC1=O [10e] (cyclo(LL[dP][X1][dL]))

>  <value_unit>
%

>  <observed_result>
66

$$$$

For the 4 compounds below, give their remaining at 0.5 h values.
1. CC(C)C[C@@H]1NC(=O)[C@@H](CC(C)C)NC(=O)[C@H](CC(C)C)NC(=O)[C@H](Cc2ccc(O)cc2)N(C)C(=O)[C@H]2CCCN2C(=O)[C@H](CC(C)C)NC1=O [10j] (cyclo(LL[dP][NMeY]L[dL]))
2. CC(C)C[C@@H]1NC(=O)[C@H](Cc2ccc(O)cc2)NC(=O)[C@H]2CCCN2C(=S)[C@H](CC(C)C)NC(=O)[C@H](CC(C)C)NC(=O)[C@@H](CC(C)C)NC1=O [10c] (cyclo(L[dL]L[X4]Y))
3. CC(C)C[C@@H]1NC(=O)[C@@H](CC(C)C)NC(=O)[C@H](CC(C)C)N(C)C(=O)[C@H](Cc2ccc(O)cc2)NC(=O)[C@H]2CCCN2C(=O)[C@H](CC(C)C)NC1=O [10k] (cyclo(LL[dP]Y[NMeL][dL]))
4. CC(C)C[C@@H]1NC(=O)[C@H](Cc2ccc(O)cc2)NC(=O)[C@H]2CCCN2C(=O)[C@H](CC(C)C)NC(=O)[C@H](CC(C)C)NC(=O)[C@@H](CC(C)C)NC1=O [compound 10, cyclo(-D-Leu^1-Leu-Leu-D-Pro-Tyr-Leu^6-)] (cyclo(LL[dP]YL[dL]))

Reply text:
1: 32; 2: 41; 3: 71; 4: 34

====

target: UniProt P00791
test_description: in vitro
protocol_conditions: simulated gastric fluid, pH 1.2
Starred links: 1 amine or outer side, 2 acyl side, 3 side chain; linkers in the order of their positions; H or OH if unused. Non-standard residues stand in square brackets, D forms with d. Residues, ends and D or L forms follow the SMILES beside them. X1 = CC(C)C[C@H](NC(=S)[C@H](Cc1ccc(O)cc1)N[*:1])C(=O)[*:2]; X3 = CC(C)C[C@H](N[*:1])C(=S)N[C@H](CC(C)C)C(=O)[*:2]; X5 = CC(C)C[C@H](NC(=S)[C@H](CC(C)C)N[*:1])C(=O)[*:2]; X4 = CC(C)C[C@H](N[*:1])C(=S)N1CCC[C@@H]1C(=O)[*:2]; NMeY = CN[C@@H](Cc1ccc(O)cc1)C(=O)O; NMeL = CN[C@@H](CC(C)C)C(=O)O; dNMeL = CN[C@H](CC(C)C)C(=O)O
So I've got a bunch of compounds here, and I need their remaining at 20 min values.

Here are 8 compounds together with their reported answers.
>  <compound>
CC(C)C[C@@H]1NC(=O)[C@@H](CC(C)C)NC(=O)[C@H](CC(C)C)NC(=O)[C@H](Cc2ccc(O)cc2)N(C)C(=O)[C@H]2CCCN2C(=O)[C@H](CC(C)C)NC1=O [10j] (cyclo(LL[dP][NMeY]L[dL]))

>  <recorded_endpoint>
remaining at 20 min

>  <observed_result>
59%

$$$$
>  <compound>
CC(C)C[C@@H]1NC(=O)[C@@H](CC(C)C)NC(=O)[C@H](CC(C)C)N(C)C(=O)[C@H](Cc2ccc(O)cc2)NC(=O)[C@H]2CCCN2C(=O)[C@H](CC(C)C)NC1=O [10k] (cyclo(LL[dP]Y[NMeL][dL]))

>  <recorded_endpoint>
remaining at 20 min

>  <observed_result>
77%

$$$$
>  <compound>
CC(C)C[C@@H]1NC(=O)[C@@H](CC(C)C)N(C)C(=O)[C@H](CC(C)C)NC(=O)[C@H](Cc2ccc(O)cc2)NC(=O)[C@H]2CCCN2C(=O)[C@H](CC(C)C)NC1=O [10g] (cyclo(LL[dP]YL[dNMeL]))

>  <recorded_endpoint>
remaining at 20 min

>  <observed_result>
45%

$$$$
>  <compound>
CC(C)C[C@@H]1NC(=O)[C@H](Cc2ccc(O)cc2)NC(=O)[C@H]2CCCN2C(=O)[C@H](CC(C)C)N(C)C(=O)[C@H](CC(C)C)NC(=O)[C@@H](CC(C)C)NC1=O [10i] (cyclo(L[NMeL][dP]YL[dL]))

>  <recorded_endpoint>
remaining at 20 min

>  <observed_result>
47%

$$$$
>  <compound>
CC(C)C[C@@H]1NC(=O)[C@@H](CC(C)C)NC(=S)[C@H](CC(C)C)NC(=O)[C@H](Cc2ccc(O)cc2)NC(=O)[C@H]2CCCN2C(=O)[C@H](CC(C)C)NC1=O [10f] (cyclo(LL[dP]Y[X3]))

>  <recorded_endpoint>
remaining at 20 min

>  <observed_result>
67%

$$$$
>  <compound>
CC(C)C[C@@H]1NC(=O)[C@H](Cc2ccc(O)cc2)NC(=O)[C@H]2CCCN2C(=O)[C@H](CC(C)C)NC(=O)[C@H](CC(C)C)N(C)C(=O)[C@@H](CC(C)C)NC1=O [10h] (cyclo(L[dL][NMeL]L[dP]Y))

>  <recorded_endpoint>
remaining at 20 min

>  <observed_result>
79%

$$$$
>  <compound>
CC(C)C[C@@H]1NC(=O)[C@@H](CC(C)C)NC(=O)[C@H](CC(C)C)NC(=S)[C@H](Cc2ccc(O)cc2)NC(=O)[C@H]2CCCN2C(=O)[C@H](CC(C)C)NC1=O [10e] (cyclo(LL[dP][X1][dL]))

>  <recorded_endpoint>
remaining at 20 min

>  <observed_result>
73%

$$$$
>  <compound>
CC(C)C[C@@H]1NC(=O)[C@H](Cc2ccc(O)cc2)NC(=O)[C@H]2CCCN2C(=S)[C@H](CC(C)C)NC(=O)[C@H](CC(C)C)NC(=O)[C@@H](CC(C)C)NC1=O [10c] (cyclo(L[dL]L[X4]Y))

>  <recorded_endpoint>
remaining at 20 min

>  <observed_result>
50%

$$$$

Inquiry: Item CC(C)C[C@@H]1NC(=O)[C@H](Cc2ccc(O)cc2)NC(=O)[C@H]2CCCN2C(=O)[C@H](CC(C)C)NC(=S)[C@H](CC(C)C)NC(=O)[C@@H](CC(C)C)NC1=O [10b] (cyclo(L[dL][X5][dP]Y)) has what recorded remaining at 20 min?
Reply text: 47%

====

target: pepsin (Sus scrofa, UniProt P00791)
Sequence (P00791 60-385): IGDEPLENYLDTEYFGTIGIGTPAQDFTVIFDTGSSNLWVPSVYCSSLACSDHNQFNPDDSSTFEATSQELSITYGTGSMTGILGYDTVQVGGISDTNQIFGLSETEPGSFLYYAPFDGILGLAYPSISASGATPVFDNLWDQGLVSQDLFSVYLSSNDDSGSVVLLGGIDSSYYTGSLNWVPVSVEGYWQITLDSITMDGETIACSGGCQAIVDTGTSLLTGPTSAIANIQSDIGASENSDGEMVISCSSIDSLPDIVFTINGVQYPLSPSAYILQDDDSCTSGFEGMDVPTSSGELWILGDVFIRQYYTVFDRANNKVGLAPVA
test_description: in vitro
protocol_conditions: simulated gastric fluid, pH 1.2
Starred links: 1 amine or outer side, 2 acyl side, 3 side chain; linkers in the order of their positions; H or OH if unused. Non-standard residues stand in square brackets, D forms with d. Residues, ends and D or L forms follow the SMILES beside them. X6 = O=C([C@H](Cc1ccc(O)cc1)NC(=S)[C@H]1CCCN1[*:1])[*:2]; X2 = CC(C)C[C@H](NC(=S)[C@@H](CC(C)C)N[*:1])C(=O)[*:2]; X5 = CC(C)C[C@H](NC(=S)[C@H](CC(C)C)N[*:1])C(=O)[*:2]; NMeL = CN[C@@H](CC(C)C)C(=O)O; dNMeL = CN[C@H](CC(C)C)C(=O)O
Would you mind telling me the reported remaining at 0.5 h of each entry?
One number for each entry, in %.

Below, 4 compounds whose answers are already recorded.
>  <compound>
CC(C)C[C@@H]1NC(=O)[C@H](Cc2ccc(O)cc2)NC(=S)[C@H]2CCCN2C(=O)[C@H](CC(C)C)NC(=O)[C@H](CC(C)C)NC(=O)[C@@H](CC(C)C)NC1=O [10d] (cyclo(LL[X6]L[dL]))

>  <remaining at 0.5 h / %>
44

$$$$
>  <compound>
CC(C)C[C@@H]1NC(=O)[C@H](Cc2ccc(O)cc2)NC(=O)[C@H]2CCCN2C(=O)[C@H](CC(C)C)N(C)C(=O)[C@H](CC(C)C)NC(=O)[C@@H](CC(C)C)NC1=O [10i] (cyclo(L[NMeL][dP]YL[dL]))

>  <remaining at 0.5 h / %>
30

$$$$
>  <compound>
CC(C)C[C@@H]1NC(=O)[C@H](Cc2ccc(O)cc2)NC(=O)[C@H]2CCCN2C(=O)[C@H](CC(C)C)NC(=S)[C@H](CC(C)C)NC(=O)[C@@H](CC(C)C)NC1=O [10b] (cyclo(L[dL][X5][dP]Y))

>  <remaining at 0.5 h / %>
38

$$$$
>  <compound>
CC(C)C[C@@H]1NC(=O)[C@@H](CC(C)C)N(C)C(=O)[C@H](CC(C)C)NC(=O)[C@H](Cc2ccc(O)cc2)NC(=O)[C@H]2CCCN2C(=O)[C@H](CC(C)C)NC1=O [10g] (cyclo(LL[dP]YL[dNMeL]))

>  <remaining at 0.5 h / %>
38

$$$$

Would you kindly look at the next entry?
Inquiry: Look up remaining at 0.5 h for this compound: CC(C)C[C@@H]1NC(=O)[C@H](Cc2ccc(O)cc2)NC(=O)[C@H]2CCCN2C(=O)[C@H](CC(C)C)NC(=O)[C@H](CC(C)C)NC(=S)[C@@H](CC(C)C)NC1=O [10a] (cyclo(L[dP]YL[X2]))
Reply text: 56
